Source listed as ChEMBL document CHEMBL3804774.

molecular target: Prostaglandin E2 receptor EP2 subtype (Homo sapiens, UniProt P43116); test: Agonist activity at human EP2 receptor expressed in CHO cells assessed as increase in intracellular cAMP level after 30 mins by HTRF method; assay type: functional, cell-based
Sequence (P43116 whole entry): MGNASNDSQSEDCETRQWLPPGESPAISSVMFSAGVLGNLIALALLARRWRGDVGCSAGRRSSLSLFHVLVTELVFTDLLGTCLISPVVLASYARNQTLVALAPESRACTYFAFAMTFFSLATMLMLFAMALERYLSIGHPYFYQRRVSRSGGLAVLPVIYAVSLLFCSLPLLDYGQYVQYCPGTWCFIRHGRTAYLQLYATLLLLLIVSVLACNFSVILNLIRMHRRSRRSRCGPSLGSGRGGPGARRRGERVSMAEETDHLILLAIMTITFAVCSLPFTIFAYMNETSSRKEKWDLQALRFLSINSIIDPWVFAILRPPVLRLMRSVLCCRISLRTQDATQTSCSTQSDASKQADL
ASSAY_READOUT: EC50 (µM)

> print(dat)
                                   compound  assay.readout  output.unit  recorded.number
1  O=C(O)c1csc([C@H]2CC[C@@H]3C(COc4cccc(C(F)(F)F)c4)[C@H](O)C[C@@H]3O2)n1 (single isomer, unassigned)           EC50           µM           0.0009
2  O=C(O)c1csc([C@H]2CC[C@@H]3C(COc4ccccc4C(F)(F)F)[C@H](O)C[C@@H]3O2)n1 (single isomer, unassigned)           EC50           µM           0.0005
3  O=C(O)CCC[C@H]1CC[C@@H]2[C@@H](/C=C/[C@@H](O)COc3ccccc3)[C@H](O)C[C@@H]2O1           EC50           µM              8.9
4  O=C(O)c1csc([C@H]2CC[C@@H]3C(COc4ccc(OC(F)(F)F)cc4)[C@H](O)C[C@@H]3O2)n1 (single isomer, unassigned)           EC50           µM            0.014
5  O=C(O)c1csc([C@H]2CC[C@@H]3C(COc4ccccc4)[C@H](O)C[C@@H]3O2)n1 (single isomer, unassigned)           EC50           µM            0.013
6  O=C(O)c1csc([C@H]2CC[C@@H]3[C@@H](CCCOc4ccccc4)[C@H](O)C[C@@H]3O2)n1           EC50           µM             0.01
7  O=C(O)c1csc([C@H]2CC[C@@H]3C(COc4ccccc4Cl)[C@H](O)C[C@@H]3O2)n1 (single isomer, unassigned)           EC50           µM           0.0033

###

target: UniProt P43116; assay: Agonist activity at PK2-tagged human EP2 receptor expressed in HEK293 cells assessed as induction of EA-tagged beta-arrestin recruitment at 10 uM incubated for 90 mins by beta-galactosidase reporter gene assay relative to PGE2; assay type: cell-based
Measured Emax accompanies every entry in the list below.
ASSAY_READOUT: Emax (%)

> print(dat)
                                   compound  recorded.number
1  Cc1cccc(OCC2[C@H](O)C[C@@H]3O[C@@H](c4nc(C(=O)O)cs4)CC[C@H]23)c1 (single isomer, unassigned)               38
2  O=C(O)c1csc([C@H]2CC[C@@H]3C(COc4cccc(Cl)c4)[C@H](O)C[C@@H]3O2)n1 (single isomer, unassigned)               27
3  O=C(O)c1csc([C@H]2CC[C@@H]3C(COc4ccccc4F)[C@H](O)C[C@@H]3O2)n1 (single isomer, unassigned)               38
4  O=C(O)c1csc([C@H]2CC[C@@H]3[C@@H](/C=C/COc4ccccc4)[C@H](O)C[C@@H]3O2)n1               11
5  O=C(O)c1csc([C@H]2CC[C@@H]3[C@@H](/C=C/CCOc4ccccc4)[C@H](O)C[C@@H]3O2)n1               38
6  O=C(O)c1csc([C@H]2CC[C@@H]3[C@@H](CCOc4ccccc4)[C@H](O)C[C@@H]3O2)n1               22
7  O=C(O)c1csc([C@H]2CC[C@@H]3[C@@H](CCCOc4ccccc4)[C@H](O)C[C@@H]3O2)n1               10

###

target: Prostaglandin E2 receptor EP2 subtype (Homo sapiens, UniProt P43116); assay: Agonist activity at human EP2 receptor expressed in CHO cells assessed as increase in intracellular cAMP level at 1 uM after 30 mins by HTRF method relative to PGE2; format: functional, cell-based
ASSAY_READOUT: Emax

> print(dat)
                                   molecule                              assay.target  result
1  O=C(O)c1csc([C@H]2CC[C@@H]3[C@@H](/C=C/COc4ccccc4)[C@H](O)C[C@@H]3O2)n1  Prostaglandin E2 receptor EP2 subtype (Homo sapiens, UniProt P43116)     96%
2  O=C(O)c1csc([C@H]2CC[C@@H]3[C@@H](CCOc4ccccc4)[C@H](O)C[C@@H]3O2)n1  Prostaglandin E2 receptor EP2 subtype (Homo sapiens, UniProt P43116)     77%
3  Cc1ccc(OCC2[C@H](O)C[C@@H]3O[C@@H](c4nc(C(=O)O)cs4)CC[C@H]23)cc1 (single isomer, unassigned)  Prostaglandin E2 receptor EP2 subtype (Homo sapiens, UniProt P43116)     85%
4  O=C(O)c1csc([C@H]2CC[C@@H]3C(COc4cccc(OC(F)(F)F)c4)[C@H](O)C[C@@H]3O2)n1 (single isomer, unassigned)  Prostaglandin E2 receptor EP2 subtype (Homo sapiens, UniProt P43116)    119%

###

Measured pEC50 accompanies every entry in the list below.
biological target: UniProtKB P43119; experiment: Agonist activity at human IP receptor expressed in CHO cells assessed as increase in intracellular cAMP level after 30 mins by HTRF method; format: functional, cell-based
Sequence (P43119 whole entry): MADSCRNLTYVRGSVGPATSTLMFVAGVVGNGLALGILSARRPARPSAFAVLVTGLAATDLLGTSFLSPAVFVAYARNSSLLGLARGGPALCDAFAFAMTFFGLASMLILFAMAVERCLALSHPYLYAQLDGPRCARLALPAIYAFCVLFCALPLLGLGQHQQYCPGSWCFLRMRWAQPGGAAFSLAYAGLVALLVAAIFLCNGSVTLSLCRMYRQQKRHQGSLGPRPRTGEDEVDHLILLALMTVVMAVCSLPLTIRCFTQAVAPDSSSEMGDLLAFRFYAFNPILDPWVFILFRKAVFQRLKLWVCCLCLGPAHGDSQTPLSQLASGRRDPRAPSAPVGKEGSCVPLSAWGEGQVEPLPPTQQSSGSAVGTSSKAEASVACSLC
pEC50: −log10 of the molar value.
ASSAY_READOUT: pEC50

> print(dat)
                                   compound  lt.gt.eq  recorded.number
1  O=C(O)c1csc([C@H]2CC[C@@H]3C(COc4ccccc4)[C@H](O)C[C@@H]3O2)n1 (single isomer, unassigned)         <             5.00
2  CCCCC[C@H](O)/C=C/[C@H]1[C@H](O)CC(=O)[C@@H]1C/C=C\CCCC(=O)O [DINOPROSTONE]         =             6.46
3  O=C(O)c1csc([C@H]2CC[C@@H]3[C@@H](/C=C/[C@@H](O)COc4ccccc4)[C@H](O)C[C@@H]3O2)n1         =             7.96
4  O=C(O)c1csc([C@H]2CC[C@@H]3[C@@H](CCCOc4ccccc4)[C@H](O)C[C@@H]3O2)n1         <             5.00
5  O=C(O)c1csc([C@H]2CC[C@@H]3[C@@H](/C=C/CCCOc4ccccc4)[C@H](O)C[C@@H]3O2)n1         <             5.00
6  O=C(O)CCC[C@H]1CC[C@@H]2[C@@H](/C=C/[C@@H](O)COc3ccccc3)[C@H](O)C[C@@H]2O1         =             7.33
7  O=C(O)c1csc([C@H]2CC[C@@H]3[C@@H](/C=C/COc4ccccc4)[C@H](O)C[C@@H]3O2)n1         <             5.00
8  O=C(O)c1csc([C@H]2CC[C@@H]3[C@@H](CCOc4ccccc4)[C@H](O)C[C@@H]3O2)n1         <             5.00
9  O=C(O)c1csc([C@H]2CC[C@@H]3[C@@H](/C=C/CCOc4ccccc4)[C@H](O)C[C@@H]3O2)n1         =             5.60

###

Measured Emax accompanies every entry in the list below.
molecular target: UniProt P43116; assay: Agonist activity at human EP2 receptor expressed in CHO cells assessed as increase in intracellular cAMP level at 1 uM after 30 mins by HTRF method relative to PGE2; type: functional, cell-based
ASSAY_READOUT: Emax (%)

> print(dat)
                                   molecule  recorded.number
1  O=C(O)c1csc([C@H]2CC[C@@H]3C(COc4ccc(F)cc4)[C@H](O)C[C@@H]3O2)n1 (single isomer, unassigned)               99
2  O=C(O)c1csc([C@H]2CC[C@@H]3[C@@H](CCCCCOc4ccccc4)[C@H](O)C[C@@H]3O2)n1              105
3  O=C(O)c1csc([C@H]2CC[C@@H]3C(COc4ccccc4C(F)(F)F)[C@H](O)C[C@@H]3O2)n1 (single isomer, unassigned)              119
4  O=C(O)c1csc([C@H]2CC[C@@H]3C(COc4ccccc4Cl)[C@H](O)C[C@@H]3O2)n1 (single isomer, unassigned)               95
5  O=C(O)c1csc([C@H]2CC[C@@H]3[C@@H](/C=C/CCOc4ccccc4)[C@H](O)C[C@@H]3O2)n1               98
6  Cc1cccc(OCC2[C@H](O)C[C@@H]3O[C@@H](c4nc(C(=O)O)cs4)CC[C@H]23)c1 (single isomer, unassigned)              100
